meta.source: ChEMBL document CHEMBL1148851

# Test system: Mycobacterium tuberculosis
# assay notes: Antibacterial activity against Mycobacterium tuberculosis H37Rv by dilution method
# Assay type: functional
# experimental context: Mycobacterium tuberculosis, H37Rv; read-out: MIC
# MIC listing for each entry below
measurement name: MIC

{"compound": "CCCCCCCC/C=C\\CCCCCCCC(=O)OC(COC(=O)CCCCCCCCC)CO[C@@H]1O[C@H](CO)[C@H](O)[C@H](O)[C@H]1O (some centres undefined)", "measurement name": "MIC", "endpoint value": "> 128 µg/mL"}
{"compound": "CCCCCCCCCCCCCCCCCC(=O)OCC(CO[C@@H]1O[C@H](CO)[C@H](O)[C@H](O)[C@H]1O)OC(=O)CCCCCCCCCCCCCCCCC (some centres undefined)", "measurement name": "MIC", "endpoint value": "> 128 µg/mL"}
{"compound": "CCCCCCCCCCCCCC(=O)OCC(CO[C@@H]1O[C@H](CO)[C@H](O)[C@H](O)[C@H]1O)OC(=O)CCCCCCCCCCCCC (some centres undefined)", "measurement name": "MIC", "endpoint value": "> 128 µg/mL"}
{"compound": "CC/C=C\\C/C=C\\C/C=C\\CCCCCCCC(=O)OC(COC(=O)CCCCCCCCC)CO[C@@H]1O[C@H](CO)[C@@H](O)[C@H](O)[C@H]1O (some centres undefined)", "measurement name": "MIC", "endpoint value": "> 128 µg/mL"}
{"compound": "CC/C=C\\C/C=C\\C/C=C\\CCCCCCCC(=O)OC(COC(=O)CCCCCCC)CO[C@@H]1O[C@H](CO)[C@@H](O)[C@H](O)[C@H]1O (some centres undefined)", "measurement name": "MIC", "endpoint value": "64 µg/mL"}
{"compound": "CC/C=C\\C/C=C\\C/C=C\\CCCCCCCC(=O)OCC(CO[C@@H]1O[C@H](CO)[C@@H](O)[C@H](O)[C@H]1O)OC(=O)CCCCCCC/C=C\\C/C=C\\C/C=C\\CC (some centres undefined)", "measurement name": "MIC", "endpoint value": "> 128 µg/mL"}
{"compound": "CCCCC/C=C\\C/C=C\\CCCCCCCC(=O)OC(COC(=O)CCCCCCCCC)CO[C@@H]1O[C@H](CO)[C@H](O)[C@H](O)[C@H]1O (some centres undefined)", "measurement name": "MIC", "endpoint value": "> 128 µg/mL"}
{"compound": "CCCCC/C=C\\C/C=C\\CCCCCCCC(=O)OC(COC(=O)CCCCCCCCC)CO[C@@H]1O[C@H](CO)[C@@H](O)[C@H](O)[C@H]1O (some centres undefined)", "measurement name": "MIC", "endpoint value": "> 128 µg/mL"}
{"compound": "CCCCCCCC(=O)OCC(CO[C@@H]1O[C@H](CO)[C@H](O)[C@H](O)[C@H]1O)OC(=O)CCCCCCC (some centres undefined)", "measurement name": "MIC", "endpoint value": "128 µg/mL"}

###

# Tested on: Staphylococcus aureus
# assay notes: Antibacterial activity against Staphylococcus aureus SA85 isolate
# Assay type: functional
measurement name: MIC

{"molecule": "CCCCCCCC/C=C\\CCCCCCCC(=O)OC(COC(=O)CCCCCCC)CO[C@@H]1O[C@H](CO)[C@H](O)[C@H](O)[C@H]1O (stereo partly specified)", "system name": "Staphylococcus aureus", "measurement name": "MIC", "endpoint value": "> 128 µg/mL"}
{"molecule": "CC/C=C\\C/C=C\\C/C=C\\CCCCCCCC(=O)OC[C@H](CO[C@@H]1O[C@H](CO)C(O)[C@H](O)[C@H]1O)OC(=O)CCCCCCC/C=C\\C/C=C\\C/C=C\\CC (single isomer, unassigned)", "system name": "Staphylococcus aureus", "measurement name": "MIC", "endpoint value": "> 128 µg/mL"}
{"molecule": "CCCCC/C=C\\C/C=C\\CCCCCCCC(=O)OC(COC(=O)CCCCCCC)CO[C@@H]1O[C@H](CO)[C@H](O)[C@H](O)[C@H]1O (stereo partly specified)", "system name": "Staphylococcus aureus", "measurement name": "MIC", "endpoint value": "> 128 µg/mL"}
{"molecule": "CCCCCCCC/C=C\\CCCCCCCC(=O)OCC(CO[C@@H]1O[C@H](CO)[C@@H](O)[C@H](O)[C@H]1O)OC(=O)CCCCCCC/C=C\\CCCCCCCC (stereo partly specified)", "system name": "Staphylococcus aureus", "measurement name": "MIC", "endpoint value": "> 128 µg/mL"}
{"molecule": "CCCCC/C=C\\C/C=C\\CCCCCCCC(=O)OC(COC(=O)CCCCCCCCC)CO[C@@H]1O[C@H](CO)[C@@H](O)[C@H](O)[C@H]1O (stereo partly specified)", "system name": "Staphylococcus aureus", "measurement name": "MIC", "endpoint value": "32 µg/mL"}
{"molecule": "CCCCC/C=C\\C/C=C\\CCCCCCCC(=O)OC(COC(=O)CCCCCCC)CO[C@@H]1O[C@H](CO)[C@@H](O)[C@H](O)[C@H]1O (stereo partly specified)", "system name": "Staphylococcus aureus", "measurement name": "MIC", "endpoint value": "> 128 µg/mL"}

###

# Test system: Mycobacterium tuberculosis
# assay notes: Antibacterial activity against Mycobacterium tuberculosis H37Rv by dilution method
# Assay type: functional
# experimental context: Mycobacterium tuberculosis, H37Rv; read-out: MIC
Catalogue of MIC values

{"compound": "CCCCCCCCCC(=O)OCC(CO[C@@H]1O[C@H](CO)[C@H](O)[C@H](O)[C@H]1O)OC(=O)CCCCCCCCC (stereo partly drawn)", "system name": "Mycobacterium tuberculosis", "MIC": "128 µg/mL"}
{"compound": "CCCCC/C=C\\C/C=C\\CCCCCCCC(=O)OC(COC(=O)CCCCCCC)CO[C@@H]1O[C@H](CO)[C@@H](O)[C@H](O)[C@H]1O (stereo partly drawn)", "system name": "Mycobacterium tuberculosis", "MIC": "64 µg/mL"}
{"compound": "CC/C=C\\C/C=C\\C/C=C\\CCCCCCCC(=O)OC(COC(=O)CCCCCCCCC)CO[C@@H]1O[C@H](CO)[C@H](O)[C@H](O)[C@H]1O (stereo partly drawn)", "system name": "Mycobacterium tuberculosis", "MIC": "> 128 µg/mL"}
{"compound": "CC/C=C\\C/C=C\\C/C=C\\CCCCCCCC(=O)OC(COC(=O)CCCCCCC)CO[C@@H]1O[C@H](CO)[C@H](O)[C@H](O)[C@H]1O (stereo partly drawn)", "system name": "Mycobacterium tuberculosis", "MIC": "128 µg/mL"}
{"compound": "CCCCCCCC/C=C\\CCCCCCCC(=O)OCC(CO[C@@H]1O[C@H](CO)[C@@H](O)[C@H](O)[C@H]1O)OC(=O)CCCCCCC/C=C\\CCCCCCCC (stereo partly drawn)", "system name": "Mycobacterium tuberculosis", "MIC": "> 128 µg/mL"}
{"compound": "CCCCCCCC/C=C\\CCCCCCCC(=O)OCC(CO[C@@H]1O[C@H](CO)[C@H](O)[C@H](O)[C@H]1O)OC(=O)CCCCCCC/C=C\\CCCCCCCC (stereo partly drawn)", "system name": "Mycobacterium tuberculosis", "MIC": "> 128 µg/mL"}
{"compound": "CCCCCCCC/C=C\\CCCCCCCC(=O)OC(COC(=O)CCCCCCC)CO[C@@H]1O[C@H](CO)[C@@H](O)[C@H](O)[C@H]1O (stereo partly drawn)", "system name": "Mycobacterium tuberculosis", "MIC": "64 µg/mL"}
{"compound": "CC/C=C\\C/C=C\\C/C=C\\CCCCCCCC(=O)OC[C@H](CO[C@@H]1O[C@H](CO)C(O)[C@H](O)[C@H]1O)OC(=O)CCCCCCC/C=C\\C/C=C\\C/C=C\\CC (single isomer, unassigned)", "system name": "Mycobacterium tuberculosis", "MIC": "> 128 µg/mL"}
{"compound": "CCCCC/C=C\\C/C=C\\CCCCCCCC(=O)OC(COC(=O)CCCCCCC)CO[C@@H]1O[C@H](CO)[C@H](O)[C@H](O)[C@H]1O (stereo partly drawn)", "system name": "Mycobacterium tuberculosis", "MIC": "64 µg/mL"}
{"compound": "CCCCCCCC/C=C\\CCCCCCCC(=O)OC(COC(=O)CCCCCCCCC)CO[C@@H]1O[C@H](CO)[C@@H](O)[C@H](O)[C@H]1O (stereo partly drawn)", "system name": "Mycobacterium tuberculosis", "MIC": "> 128 µg/mL"}
{"compound": "CCCCCCCC/C=C\\CCCCCCCC(=O)OC(COC(=O)CCCCCCC)CO[C@@H]1O[C@H](CO)[C@H](O)[C@H](O)[C@H]1O (stereo partly drawn)", "system name": "Mycobacterium tuberculosis", "MIC": "128 µg/mL"}
{"compound": "CCCCCCCCCCCC(=O)OCC(CO[C@@H]1O[C@H](CO)[C@H](O)[C@H](O)[C@H]1O)OC(=O)CCCCCCCCCCC (stereo partly drawn)", "system name": "Mycobacterium tuberculosis", "MIC": "> 128 µg/mL"}
{"compound": "CCCCC/C=C\\C/C=C\\CCCCCCCC(=O)OCC(CO[C@@H]1O[C@H](CO)[C@@H](O)[C@H](O)[C@H]1O)OC(=O)CCCCCCC/C=C\\C/C=C\\CCCCC (stereo in doubt; 9g)", "system name": "Mycobacterium tuberculosis", "MIC": "64 µg/mL"}
